Taken from patent US20230045421A1.

Could you please report measured EC50 for the items listed next?
test system: HBV rcDNA; assay: HepDE19 assay with bDNA quantitation of HBV rcDNA; type: cell-based, hepatitis B virus; conditions: Hepatitis B virus, HepDE19, HepDE19 assay, inhibition of formation of rcDNA; read-out: DE-19bDNA EC50
The answer should read as a number with its unit following.

Examples with answers:
[
  {
    "molecule": "CC(c1c[nH]c(=O)c2ccccc12)N(CC(N)=O)C(=O)Nc1ccc(F)c(Cl)c1 (racemic)",
    "test system": "HBV rcDNA",
    "EC50": "1.5 µM"
  },
  {
    "molecule": "C[C@H](c1c[nH]c(=O)c2ccccc12)N(C)C(=O)Nc1cc(F)c(F)c(F)c1",
    "test system": "HBV rcDNA",
    "EC50": "0.16 µM"
  },
  {
    "molecule": "CN(Cc1cnc(OCc2ncn(C)n2)c2ccccc12)C(=O)Nc1ccc(F)c(Cl)c1",
    "test system": "HBV rcDNA",
    "EC50": "0.47 µM"
  },
  {
    "molecule": "CNC(=O)CN(C(=O)Nc1ccc(F)c(Cl)c1)C(C)c1c[nH]c(=O)c2ccccc12 (single isomer, unassigned) [Compound 129]",
    "test system": "HBV rcDNA",
    "EC50": "0.53 µM"
  },
  {
    "molecule": "CNc1ncc(C(C)N(C)C(=O)Nc2ccc(F)c(Cl)c2)c2nccnc12 (racemic)",
    "test system": "HBV rcDNA",
    "EC50": "2.8 µM"
  }
]

Hi! Can you tell me EC50 for each of these molecules?
1. CC(C)CN(C(=O)Nc1ccc(F)c(Cl)c1)C(C)c1c[nH]c(=O)c2ccccc12 (racemic)
2. Cc1cc(NC(=O)NCc2c[nH]c(=O)c3ccccc23)ccc1F

1: 0.01 µM; 2: 4.8 µM
